Reference for the values: paper PMC7859452

# tested.target: the molecule itself
# assay: AUC; sedimentation velocity, c(s) size distribution (SEDFIT), 50,000 rpm, 20 °C, 10 mM Hepes pH 7.4, 137 mM NaCl, concentration series 0.2 – 3 mg/ml; KD of dimer to monomers from integration of the c(s) peaks
// reported percent dimer per item
Quote the value and follow it with the unit of measurement.

Complement Factor H SCR-17H fragment (domain or fragment, also: N-linked glycan chain, site not given here) TDCLSLPSFENAIPMGEKKDVYKAGEQVTYTCATYYKMDGASNVTCINSRWTGRPTCRDTS | 80%
Complement Factor H SCR-16/20 fragment (domain or fragment, N-linked glycan chains on SCR-17 and SCR-18) GLPCKSPPEISHGVVAHMSDSYQYGEEVTYKCFEGFGIDGPAIAKCLGEKWSHPPSCIKTDCLSLPSFENAIPMGEKKDVYKAGEQVTYTCATYYKMDGASNVTCINSRWTGRPTCRDTSCVNPPTVQNAYIVSRQMSKYPSGERVRYQCRSPYEMFGDEEVMCLNGNWTEPPQCKDSTGKCGPPPPIDNGDITSFPLSVYAPASSVEYQCQNLYQLEGNKRITCRNGQWSEPPKCLHPCVISREIMENYNIALRWTAKQKLYSRTGESVEFVCKRGYRLSSRSHTLRTTCWDGKLEYPTCAKR | 40%

Continue with the next protein.
In: Entry under review: Complement Factor H SCR-17/18H fragment (domain or fragment, N-linked glycan chains on SCR-17 and SCR-18) TDCLSLPSFENAIPMGEKKDVYKAGEQVTYTCATYYKMDGASNVTCINSRWTGRPTCRDTSCVNPPTVQNAYIVSRQMSKYPSGERVRYQCRSPYEMFGDEEVMCLNGNWTEPPQCKDST . Reported percent dimer?
Out: 80%
